Field: IC50. Provide a value for each of the binders that follow.
target: DRB1*0405; assay: binding to purified HLA
// note: answer is a bare numeric in nM

Which IC50 is listed for AAAYFVAAFTLHAAA [Y4.F9.H12] ? 4.4

What IC50 value was documented for this binder, AAAWFVAANTLHAAA [W4.N9.H12] ? 21

I am curious: what IC50 value has been reported for AAAHFVAAWTLHAAA [H4.H12] ? 12

Given AAAFFVAANTLKADA [F4.N9.D14] , state its recorded IC50. 9.5
